Every entry's value here was drawn from ChEMBL document CHEMBL1955761.

target: UniProtKB P00735; assay: Inhibition of bovine plasma thrombin using Boc-Val-Pro-Arg-AMC as substrate at 25 uM preincubated for 15 mins measured after 10 mins by fluorimetric assay
Calls of active or inactive are those of the source.
measurement_name: inhibition

A selection of reference data follows.
| molecule | measurement_name | result |
| --- | --- | --- |
| Cc1ccc(/C=C2\NC(=S)NC2=O)cc1 | inhibition | 14% |
| COc1cccc(/C=C2\SC(=S)NC2=O)c1 | inhibition | 11% |
| CCCC/C=C1\NC(=S)NC1=O | inhibition | 14% |
| O=C1NC(=S)N/C1=C\c1ccccn1 | inhibition | 38% |

Please give the documented inhibition of O=C1NC(=O)/C(=C/c2sccc2Cl)N1
inactive

Query inhibition for O=C1NC(=S)N/C1=C\C1CCCCC1
18%

Indicate the recorded inhibition value for this molecule: O=C1NC(=O)/C(=C/c2ccc(Br)s2)S1
19%

Using known records, supply inhibition for COc1ccc(/C=C/C=C2\SC(=S)NC2=O)cc1
20%

Please supply the value of reported inhibition for the item O=C1NC(=O)C(Cc2ccc(O)c(O)c2)N1 (stereo not drawn)
inactive

====

system: Escherichia coli; experiment: Inhibition of Escherichia coli MurA using PEP as substrate assessed as inorganic phosphate release at 25 uM preincubated for 10 mins measured after 60 mins […]
Activity calls are given as the source filed them.
measurement_name: inhibition

Consider the following illustrative entries.
| compound | inhibition |
| --- | --- |
| Cc1ccc(/C=C2\SC(O)=NC2=O)cc1 | inactive |
| O=C1NC(=S)S/C1=C\C1CCCCC1 | 13% |
| CCCC/C=C/C1NC(=S)NC1=O (centres undefined) | 64% |
| O=C1NC(=O)/C(=C/c2ccc(O)cc2)S1 | inactive |
| O=C1NC(=O)/C(=C/c2cccs2)S1 | 30% |

Answer with the recorded inhibition of O=C1NC(=S)NC1Cc1ccc(O)c(O)c1 (centres undefined) only.
63%

Tell me its inhibition given C/C(=C1/NC(=S)NC1=O)c1ccc(F)cc1 as the entry.
29%

Supply inhibition value. Item: O=C1NC(=O)/C(=C/c2cccs2)N1
inactive

====

test system: Dengue virus; assay: Inhibition of Dengue virus NS2B-NS3 protease using Abz-NleKRRS-3-(NO2)Y as substrate at 50 uM preincubated for 15 mins measured every sec for 15 mins by fluorimetric analysis
measurement_name: inhibition

| molecule | inhibition |
| --- | --- |
| O=C1NC(=O)/C(=C/c2ccccc2)S1 | 25% |
| COc1ccc(/C=C/C=C2\SC(=O)NC2=O)cc1 | 18% |
| O=C1NC(=S)S/C1=C\c1ccc(Cl)s1 | 54% |
| C/C(=C1/SC(=S)NC1=O)c1ccc2ccccc2c1 | 42% |
| Cn1cc(/C=C2\SC(=O)NC2=O)c2ccccc21 | 41% |
| O=C1NC(=O)/C(=C/c2ccc([N+](=O)[O-])cc2)N1 | 26% |
| COc1ccc(/C=C2\SC(=S)NC2=O)cc1OC | 50% |
| CN(C)c1ccc(/C=C2\SC(=S)NC2=O)cc1 | 36% |
| O=C1NC(=S)N/C1=C\c1ccco1 | 46% |
| O=C1NC(=S)S/C1=C\c1ccc([N+](=O)[O-])cc1 | 46% |

Return inhibition for the following molecule: O=C1NC(=O)/C(=C/c2ccc(O)cc2)S1
32%

Report measured inhibition; entry is O=C1NC(=O)/C(=C/c2ccccn2)S1
15%

Give reported inhibition value for CC(=O)n1cc(/C=C2\SC(=S)NC2=O)c2ccccc21
46%
